Value source: paper PMC4140764

Below is a list of entries, each paired with its recorded pEC50 value.
System: MARV (Ci67)
Assay: microbe, parasite or virus in culture
Type: cell-based, Lake Victoria marburgvirus
Conditions: Orthomarburgvirus marburgense, HeLa, 48 h
Please treat pEC50 as minus the base-10 logarithm of the molar concentration.

Below, 4 compounds whose answers are already recorded.
| compound | subject-of-test | recorded-result |
| --- | --- | --- |
| COc1ccccc1CNC(=O)C1c2c(n(C)c3ccccc23)SCC(=O)N1c1ccc(OC)c(OC)c1 (centres unmarked) | MARV (Ci67) | 4.47 |
| Cc1ccc(NC(=O)Nc2cc(NC(=O)c3ccc(F)cc3)ccc2N2CCCC2)c(Cl)c1 | MARV (Ci67) | 3.84 |
| COc1ccc(CN2C(=O)C(=O)c3cc(C)ccc32)cc1 | MARV (Ci67) | 4.06 |
| CC1(C(=O)NCc2ccccc2)Cn2c(cc3occc32)C(=O)N1Cc1ccc(Cl)cc1 (centres unmarked) | MARV (Ci67) | 4.24 |

The compound listed as NC(=O)c1ncn([C@@H]2O[C@H](CO)[C@@H](O)[C@H]2O)n1 [Ribavirin, ribavirin, reference compound] has a reported pEC50 of 4.09
